System: NCI-H1650
Experiment: relative viability (nuclei count vs DMSO), 5 days (fraction); higher = more cells survive
Settings: first compound 0.4 µM
The following compounds are shown together with reported relative viability values.

Compound	Reported result
COc1cc(N2CCC(C(N)=O)CC2)ccc1Nc1nc(N)c(Cl)c(Nc2ccccc2S(=O)(=O)C(C)C)n1 [HG-5-88-01] + O=C(c1cc(Cc2n[nH]c(=O)c3ccccc23)ccc1F)N1CCN(C(=O)C2CC2)CC1 [Olaparib] (partner 8 µM)	0.969
Clc1ccc(Nc2nnc(Cc3ccncc3)c3ccccc23)cc1 [Vatalanib] + Nc1ncn([C@H]2C[C@H](O)[C@@H](CO)O2)c(=O)n1 [Decitabine] (partner 2 µM)	0.388
COc1cc(N2CCC(C(N)=O)CC2)ccc1Nc1nc(N)c(Cl)c(Nc2ccccc2S(=O)(=O)C(C)C)n1 [HG-5-88-01] + CS(=O)(=O)N1CCN(Cc2cc3nc(-c4cccc5[nH]ncc45)nc(N4CCOCC4)c3s2)CC1 [Pictilisib] (partner 1 µM)	0.565

// field: relative viability; key: Clc1ccc(Nc2nnc(Cc3ccncc3)c3ccccc23)cc1 [Vatalanib] + C[C@@H](Oc1cc(-c2cnn(C3CCNCC3)c2)cnc1N)c1c(Cl)ccc(F)c1Cl [Crizotinib] (partner 1 µM) ; value = 1.06

###

The following compounds are shown together with reported relative viability values.
Test system: NCI-H1993
Assay: relative viability (nuclei count vs DMSO), 5 days (fraction); higher = more cells survive
Settings: first compound 0.04 µM
Give your answer as a number; write no unit.

Compound	relative viability
COc1cc(N2CCC(C(N)=O)CC2)ccc1Nc1nc(N)c(Cl)c(Nc2ccccc2S(=O)(=O)C(C)C)n1 [HG-5-88-01] + O=C(c1cc(Cc2n[nH]c(=O)c3ccccc23)ccc1F)N1CCN(C(=O)C2CC2)CC1 [Olaparib] (partner 8 µM)	1.12
C[C@@H]1CN(CC(=O)Nc2ccc3c(c2)Cc2cccc(-c4cc(=O)cc(N5CCOCC5)o4)c2S3)C[C@H](C)O1 + CC1(C)CCC(c2ccc(Cl)cc2)=C(CN2CCN(c3ccc(C(=O)NS(=O)(=O)c4ccc(N[C@H](CCN5CCOCC5)CSc5ccccc5)c(S(=O)(=O)C(F)(F)F)c4)cc3)CC2)C1 [Navitoclax] (partner 0.5 µM)	0.933
Clc1ccc(Nc2nnc(Cc3ccncc3)c3ccccc23)cc1 [Vatalanib] + CC(=O)c1c(C)c2cnc(Nc3ccc(N4CCNCC4)cn3)nc2n(C2CCCC2)c1=O [Palbociclib] (partner 0.5 µM)	0.872

// field: relative viability; key: COc1cc(N2CCC(C(N)=O)CC2)ccc1Nc1nc(N)c(Cl)c(Nc2ccccc2S(=O)(=O)C(C)C)n1 [HG-5-88-01] + C[C@@H](Oc1cc(-c2cnn(C3CCNCC3)c2)cnc1N)c1c(Cl)ccc(F)c1Cl [Crizotinib] (partner 1 µM) ; value = 0.988

// field: relative viability; key: Clc1ccc(Nc2nnc(Cc3ccncc3)c3ccccc23)cc1 [Vatalanib] + CCNC(=O)c1noc(-c2cc(C(C)C)c(O)cc2O)c1-c1ccc(CN2CCOCC2)cc1 [Luminespib] (partner 0.01 µM) ; value = 0.955

// field: relative viability; key: COc1cc(N2CCC(C(N)=O)CC2)ccc1Nc1nc(N)c(Cl)c(Nc2ccccc2S(=O)(=O)C(C)C)n1 [HG-5-88-01] + N=C(N)NC(=N)NCCc1ccccc1 [Phenformin] (partner 250 µM) ; value = 0.501

// field: relative viability; key: C[C@@H]1CN(CC(=O)Nc2ccc3c(c2)Cc2cccc(-c4cc(=O)cc(N5CCOCC5)o4)c2S3)C[C@H](C)O1 + Cc1nc(NC(=O)N2CCC[C@H]2C(N)=O)sc1-c1ccnc(C(C)(C)C(F)(F)F)c1 [Alpelisib] (partner 2 µM) ; value = 0.641

// field: relative viability; key: COc1cc(N2CCC(C(N)=O)CC2)ccc1Nc1nc(N)c(Cl)c(Nc2ccccc2S(=O)(=O)C(C)C)n1 [HG-5-88-01] + CC(C)C[C@H](NC(=O)[C@H](Cc1ccccc1)NC(=O)c1cnccn1)B(O)O [Bortezomib] (partner 0.002 µM) ; value = 1.08

// field: relative viability; key: COc1cc(N2CCC(C(N)=O)CC2)ccc1Nc1nc(N)c(Cl)c(Nc2ccccc2S(=O)(=O)C(C)C)n1 [HG-5-88-01] + Cc1nc(Nc2ncc(C(=O)Nc3c(C)cccc3Cl)s2)cc(N2CCN(CCO)CC2)n1 [Dasatinib] (partner 0.075 µM) ; value = 0.633

###

Tested on: NCI-H1666
Experiment: relative viability (nuclei count vs DMSO), 5 days (fraction); higher = more cells survive
Settings: first compound 0.04 µM
Recorded endpoint: relative viability
Give your answer as a number; write no unit.

Compound	relative viability
Clc1ccc(Nc2nnc(Cc3ccncc3)c3ccccc23)cc1 [Vatalanib] + Nc1nc2[nH]cc(CCc3ccc(C(=O)N[C@@H](CCC(=O)O)C(=O)O)cc3)c2c(=O)[nH]1 [Pemetrexed] (partner 0.2 µM)	0.845
COc1cc(N2CCC(C(N)=O)CC2)ccc1Nc1nc(N)c(Cl)c(Nc2ccccc2S(=O)(=O)C(C)C)n1 [HG-5-88-01] + CC1(C)CCC(c2ccc(Cl)cc2)=C(CN2CCN(c3ccc(C(=O)NS(=O)(=O)c4ccc(N[C@H](CCN5CCOCC5)CSc5ccccc5)c(S(=O)(=O)C(F)(F)F)c4)cc3)CC2)C1 [Navitoclax] (partner 0.5 µM)	1.14

// field: relative viability; key: Clc1ccc(Nc2nnc(Cc3ccncc3)c3ccccc23)cc1 [Vatalanib] + CS(=O)(=O)CCNCc1ccc(-c2ccc3ncnc(Nc4ccc(OCc5cccc(F)c5)c(Cl)c4)c3c2)o1 [Lapatinib] (partner 2 µM) ; value = 0.728

// field: relative viability; key: COc1cc(N2CCC(C(N)=O)CC2)ccc1Nc1nc(N)c(Cl)c(Nc2ccccc2S(=O)(=O)C(C)C)n1 [HG-5-88-01] + CC(=O)c1c(C)c2cnc(Nc3ccc(N4CCNCC4)cn3)nc2n(C2CCCC2)c1=O [Palbociclib] (partner 0.5 µM) ; value = 0.636

###

Test system: NCI-H358
Experiment: relative viability (nuclei count vs DMSO), 5 days (fraction); higher = more cells survive
Conditions: first compound 2.53 µM
Recorded endpoint: relative viability
Give your answer as a number; write no unit.

// field: relative viability; key: CCCCCCCCCCCC1=C(O)C(=O)C=C(O)C1=O [Embelin] + COc1cc2c(Oc3ccc(NC(=O)C4(C(=O)Nc5ccc(F)cc5)CC4)cc3F)ccnc2cc1OCCCN1CCOCC1 [Foretinib] (partner 0.25 µM) ; value = 0.976

// field: relative viability; key: CCCCCCCCCCCC1=C(O)C(=O)C=C(O)C1=O [Embelin] + CC(=O)c1c(C)c2cnc(Nc3ccc(N4CCNCC4)cn3)nc2n(C2CCCC2)c1=O [Palbociclib] (partner 0.5 µM) ; value = 0.141

// field: relative viability; key: CCCCCCCCCCCC1=C(O)C(=O)C=C(O)C1=O [Embelin] + CS(=O)(=O)CCNCc1ccc(-c2ccc3ncnc(Nc4ccc(OCc5cccc(F)c5)c(Cl)c4)c3c2)o1 [Lapatinib] (partner 2 µM) ; value = 0.47

// field: relative viability; key: CCCCCCCCCCCC1=C(O)C(=O)C=C(O)C1=O [Embelin] + Cc1cc(Nc2cc(N3CCN(C)CC3)nc(Sc3ccc(NC(=O)C4CC4)cc3)n2)n[nH]1 [Tozasertib] (partner 0.1 µM) ; value = 0.108

// field: relative viability; key: CCCCCCCCCCCC1=C(O)C(=O)C=C(O)C1=O [Embelin] + COc1cccc2cc(-c3nc([C@H]4CC[C@H](C(=O)O)CC4)n4ncnc(N)c34)[nH]c12 [OSI-027] (partner 0.5 µM) ; value = 0.898

// field: relative viability; key: CCCCCCCCCCCC1=C(O)C(=O)C=C(O)C1=O [Embelin] + C[C@@H](Oc1cc(-c2cnn(C3CCNCC3)c2)cnc1N)c1c(Cl)ccc(F)c1Cl [Crizotinib] (partner 1 µM) ; value = 0.547

###

Tested on: HCC-15
Test: relative viability (nuclei count vs DMSO), 5 days (fraction); higher = more cells survive
Conditions: first compound 0.3162 µM
Recorded endpoint: relative viability
Give your answer as a number; write no unit.

Molecule	relative viability
CC(C)Oc1cc(Nc2nc(N[C@@H](C)c3ccc(F)cn3)ncc2Cl)n[nH]1 [AZ23] + Cc1nc(Nc2ncc(C(=O)Nc3c(C)cccc3Cl)s2)cc(N2CCN(CCO)CC2)n1 [Dasatinib] (partner 0.075 µM)	0.575
CC(C)Oc1cc(Nc2nc(N[C@@H](C)c3ccc(F)cn3)ncc2Cl)n[nH]1 [AZ23] + COc1cc2c(Oc3ccc(NC(=O)C4(C(=O)Nc5ccc(F)cc5)CC4)cc3F)ccnc2cc1OCCCN1CCOCC1 [Foretinib] (partner 0.25 µM)	1.05

Simply: CC(C)Oc1cc(Nc2nc(N[C@@H](C)c3ccc(F)cn3)ncc2Cl)n[nH]1 [AZ23] + O=C(c1cc(Cc2n[nH]c(=O)c3ccccc23)ccc1F)N1CCN(C(=O)C2CC2)CC1 [Olaparib] (partner 8 µM) , HCC-15, relative viability = 0.747
